Here, each record is paired with measured log10 MIC80 data.
system: Staphylococcus aureus; assay: Antibacterial activity against Staphylococcus aureus ATCC 29213 after 24 hrs by microtiter broth dilution method; format: functional; conditions: ATCC 29213, 24 h
observable: log10 MIC80 (log10 of the value in µg/mL)

molecule=Oc1ccc2cc(-c3ccccc3)oc2c1 observable="log10 MIC80" measured_number=0.80
molecule=CC(=O)c1c(-c2ccc(C)o2)oc2cc(O)ccc12 observable="log10 MIC80" measured_number=0.80
molecule=c1ccc(COc2ccc3cc(-c4ccccc4)oc3c2)cc1 observable="log10 MIC80" measured_number=2.00
molecule=COc1cc(C(=O)c2c(-c3ccc(C)o3)oc3cc(OCCc4nc(-c5ccccc5)oc4C)ccc23)cc(OC)c1OC observable="log10 MIC80" measured_number=1.10
molecule=COc1ccc(-c2cc3ccc(O)cc3o2)cc1 observable="log10 MIC80" measured_number=0.19
molecule=COc1cc(/N=C/c2c(-c3ccccc3)oc3cc(OCCc4nc(-c5ccccc5)oc4C)ccc23)cc(OC)c1OC observable="log10 MIC80" measured_number=0.49
molecule="CC1(C)S[C@@H]2[C@H](NC(=O)Cc3ccccc3)C(=O)N2[C@H]1C(=O)[O-].[Na+] [PENICILLIN G SODIUM]" observable="log10 MIC80" measured_number=0.49
molecule="CC(C)(O/N=C(\\C(=O)N[C@@H]1C(=O)N2C(C(=O)[O-])=C(C[n+]3ccccc3)CS[C@H]12)c1csc(N)n1)C(=O)O [CEFTAZIDIME]" observable="log10 MIC80" measured_number=-0.11
molecule=Cc1ccc(-c2cc3ccc(O)cc3o2)o1 observable="log10 MIC80" measured_number=0.19
molecule="CO/N=C(\\C(=O)N[C@@H]1C(=O)N2C(C(=O)O)=C(COC(C)=O)CS[C@H]12)c1csc(N)n1 [CEFOTAXIME]" observable="log10 MIC80" measured_number=0.49
